Source listed as patent US9938266B2.

target: human BACE2 (1-460):Fc (Homo sapiens); assay: BACE2 TMEM27 FRET Assay; details: huBACE2:Fc, TMEM27 FRET substrate; n=4, mean±SEM
Sequence (Q9Y5Z0 21-460): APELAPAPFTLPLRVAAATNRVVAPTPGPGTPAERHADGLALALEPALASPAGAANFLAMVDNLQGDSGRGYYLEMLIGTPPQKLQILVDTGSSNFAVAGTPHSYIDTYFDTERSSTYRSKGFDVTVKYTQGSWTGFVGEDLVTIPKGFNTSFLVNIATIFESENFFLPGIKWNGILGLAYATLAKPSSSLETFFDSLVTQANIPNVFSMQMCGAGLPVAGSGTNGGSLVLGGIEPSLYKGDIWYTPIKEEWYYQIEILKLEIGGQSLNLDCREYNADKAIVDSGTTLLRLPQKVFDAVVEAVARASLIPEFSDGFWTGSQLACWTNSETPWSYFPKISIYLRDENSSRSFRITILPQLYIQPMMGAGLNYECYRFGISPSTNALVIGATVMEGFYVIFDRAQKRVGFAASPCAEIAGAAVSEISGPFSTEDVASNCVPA
quantity-kind: IC50 (nM)

NC1=N[C@@]2(c3cc(NC(=O)c4cnc(-n5cncn5)cn4)ccc3F)C[C@@H](OC3CC3)C[C@H]2CS1 [Example 1] ... 87.3

---

molecular target: BACE1 (Homo sapiens); construct: endogenous in cells; host or cells: SH-SY5Y (ATCC CRL2266) stably expressing human APP695Wt; assay: SH-SY5YAPP695Wt Whole Cell Assay (Abeta ELISA); type: cell-based; details: SH-SY5YAPP695Wt cells, 24 hours; n=4, mean±SEM; read-out: IC50 SH-SY5YAPP695Wt A-beta (1-40) ELISA
quantity-kind: IC50

NC1=N[C@@]2(c3cc(NC(=O)c4cnc(-n5cncn5)cn4)ccc3F)C[C@@H](OC3CC3)C[C@H]2CS1 [Example 1] ... 0.38 nM

---

biological target: human BACE1(1-460):Fc (Homo sapiens); test: BACE1 FRET Assay; conditions: purified recombinant huBACE1:Fc, n=6, mean±SEM
Sequence (P56817 22-460): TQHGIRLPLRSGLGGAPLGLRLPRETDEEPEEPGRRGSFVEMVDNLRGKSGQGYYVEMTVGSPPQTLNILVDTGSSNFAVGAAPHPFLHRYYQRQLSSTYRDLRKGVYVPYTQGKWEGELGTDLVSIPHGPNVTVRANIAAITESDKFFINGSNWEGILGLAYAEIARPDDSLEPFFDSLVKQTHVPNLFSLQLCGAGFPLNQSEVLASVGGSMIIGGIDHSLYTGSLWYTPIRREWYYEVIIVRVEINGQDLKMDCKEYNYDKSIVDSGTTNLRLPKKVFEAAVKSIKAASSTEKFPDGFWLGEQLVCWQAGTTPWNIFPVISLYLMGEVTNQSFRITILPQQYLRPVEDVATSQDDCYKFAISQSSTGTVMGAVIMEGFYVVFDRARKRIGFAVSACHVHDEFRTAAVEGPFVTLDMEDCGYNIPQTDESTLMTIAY
quantity-kind: IC50 (nM)

NC1=N[C@@]2(c3cc(NC(=O)c4cnc(-n5cncn5)cn4)ccc3F)C[C@@H](OC3CC3)C[C@H]2CS1 ... 0.955

---

biological target: BACE1 (Homo sapiens, UniProt P56817); construct: endogenous in cells; host or cells: SH-SY5Y (ATCC CRL2266) stably expressing human APP695Wt; test: SH-SY5YAPP695Wt Whole Cell Assay (Abeta ELISA); assay type: cell-based; conditions: SH-SY5YAPP695Wt cells, 24 hours; n=3, mean±SEM; read-out: IC50 SH-SY5YAPP695Wt A-beta (1-42) ELISA
Sequence (P56817 46-501): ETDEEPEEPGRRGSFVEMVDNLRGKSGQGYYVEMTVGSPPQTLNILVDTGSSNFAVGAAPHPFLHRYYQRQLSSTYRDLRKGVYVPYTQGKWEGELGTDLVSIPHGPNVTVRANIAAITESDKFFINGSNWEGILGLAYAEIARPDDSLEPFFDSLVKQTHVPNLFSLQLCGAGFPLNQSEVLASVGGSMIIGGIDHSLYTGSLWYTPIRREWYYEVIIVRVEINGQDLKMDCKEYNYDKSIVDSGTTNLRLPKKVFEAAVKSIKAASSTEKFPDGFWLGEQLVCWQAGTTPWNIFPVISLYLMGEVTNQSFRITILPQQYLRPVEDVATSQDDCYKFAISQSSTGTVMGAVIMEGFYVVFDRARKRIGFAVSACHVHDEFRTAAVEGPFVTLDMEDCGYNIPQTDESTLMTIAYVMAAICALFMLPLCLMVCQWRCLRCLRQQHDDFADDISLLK
pIC50: −log10 of the molar value.
quantity-kind: pIC50

NC1=N[C@@]2(c3cc(NC(=O)c4cnc(-n5cncn5)cn4)ccc3F)C[C@@H](OC3CC3)C[C@H]2CS1 [Example 1] ... 9.37
